- System: C. krusei
- experiment: Antifungal Activity Assay (broth microtiter MIC), C. krusei
- Assay type: cell-based, Candida krusei
- measurementContext: Pichia kudriavzevii, ATCC6258, 48 h, read-out: MIC, C. krusei ATCC 6258, Table 3b (additional results), 3 replicates, MIC recorded at 48 h
Each item that follows carries a reported MIC.

Some compounds with known MIC results, for comparison:
>>> result("COc1ccc(F)cc1[C@H](Cn1c(=O)n(C(C)(C)C(=O)N2CCCCC2)c(=O)c2c(C)c(-n3nccn3)sc21)OC1CCC(=O)CC1")
"1.01 to 2 µg/mL"
>>> result("COc1ccc(F)cc1[C@@](O)(CCO)Cn1c(=O)n(C(C)(C)C(=O)NC(C)C)c(=O)c2c(C)c(-n3nccn3)sc21")
"0.06 to 0.249 µg/mL"
>>> result("COc1ccccc1[C@H](Cn1c(=O)n(C(C)(C)C(=O)NC(C)C)c(=O)c2c(C)c(-n3nccn3)sc21)O[C@H]1CC[C@@H](O)CC1")
"0.06 to 0.249 µg/mL"
>>> result("CCc1ccccc1[C@H](Cn1c(=O)n(C(C)(C)C(=O)NC(C)C)c(=O)c2c(C)c(-n3nccn3)sc21)O[C@H]1CC[C@@H](C#N)CC1")
"1.01 to 2 µg/mL"
>>> result("COc1ccc(F)cc1[C@H](Cn1c(=O)n(C(C)(C)C(=O)NC(C)C)c(=O)c2c(C)c(-n3nccn3)sc21)OCCN1CC(C#N)C1")
"0.25 to 1 µg/mL"

For the next question, use this compound.
Given the compound COCCCO[C@@H](Cn1c(=O)n(C(C)(C)C(=O)NC(C)C)c(=O)c2c(C)c(-n3nccn3)sc21)c1cc(F)ccc1OC , what is its reported MIC? 0.25 to 1 µg/mL
